Examples of molecules with documented Ki follow.
- Target desc: TYK2 (Homo sapiens (Human), UniProt P29597)
- Sequence (P29597 whole entry): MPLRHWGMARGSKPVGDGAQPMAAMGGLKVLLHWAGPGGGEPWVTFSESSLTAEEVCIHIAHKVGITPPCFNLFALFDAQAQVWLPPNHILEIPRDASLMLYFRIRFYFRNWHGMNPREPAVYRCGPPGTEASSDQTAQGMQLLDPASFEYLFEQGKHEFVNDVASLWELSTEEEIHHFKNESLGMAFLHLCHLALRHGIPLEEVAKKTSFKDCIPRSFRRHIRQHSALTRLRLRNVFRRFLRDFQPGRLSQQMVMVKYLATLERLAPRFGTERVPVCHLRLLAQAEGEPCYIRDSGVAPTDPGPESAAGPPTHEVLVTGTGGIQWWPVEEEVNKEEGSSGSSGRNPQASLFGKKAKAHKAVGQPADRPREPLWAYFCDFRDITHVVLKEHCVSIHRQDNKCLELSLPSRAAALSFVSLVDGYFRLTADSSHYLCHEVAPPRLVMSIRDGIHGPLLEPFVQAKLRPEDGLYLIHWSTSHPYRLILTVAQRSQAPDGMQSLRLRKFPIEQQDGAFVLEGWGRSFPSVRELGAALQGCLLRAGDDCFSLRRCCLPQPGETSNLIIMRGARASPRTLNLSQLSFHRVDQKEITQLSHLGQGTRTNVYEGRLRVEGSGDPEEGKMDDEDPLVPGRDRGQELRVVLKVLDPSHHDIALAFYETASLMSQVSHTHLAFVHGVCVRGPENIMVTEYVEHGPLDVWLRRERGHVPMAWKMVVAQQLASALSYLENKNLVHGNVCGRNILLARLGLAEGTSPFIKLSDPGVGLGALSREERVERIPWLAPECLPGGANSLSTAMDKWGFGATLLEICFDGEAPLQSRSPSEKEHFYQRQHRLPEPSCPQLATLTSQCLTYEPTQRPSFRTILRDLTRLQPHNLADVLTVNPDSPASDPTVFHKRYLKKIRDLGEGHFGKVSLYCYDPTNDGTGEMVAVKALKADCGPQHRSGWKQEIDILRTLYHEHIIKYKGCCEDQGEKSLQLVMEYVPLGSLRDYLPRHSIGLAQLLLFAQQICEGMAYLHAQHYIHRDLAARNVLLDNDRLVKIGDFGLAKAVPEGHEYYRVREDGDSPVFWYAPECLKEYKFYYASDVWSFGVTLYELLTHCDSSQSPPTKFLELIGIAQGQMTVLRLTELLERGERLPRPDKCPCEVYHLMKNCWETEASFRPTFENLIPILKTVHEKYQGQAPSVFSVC
- Test details: Biochemical JAK kinase assay (LanthaScreen), Tyk2
- Condition description: read-out: Tyk2 pKi (converted)

CCc1cc(O)ccc1-c1ccc2c(-c3nc(C4=CCN(CC(C)C)CC4)c[nH]3)n[nH]c2c1F :: 10 to 100 nM
CCc1cc(O)ccc1-c1ccc2c(-c3nc(C4=CCN(C)CC4)c[nH]3)n[nH]c2c1F :: 0.1 to 1 nM
CCc1cc(O)ccc1-c1ccc2c(-c3nc(C4=CCN(C(=O)CN)CC4)c[nH]3)n[nH]c2c1F :: 1 to 10 nM

Could you now look at the following molecule, please?
Entry "CCc1cc(O)ccc1-c1ccc2c(-c3nc(C4=CCN(CCN)C4)c[nH]3)n[nH]c2c1F" under TYK2 (Homo sapiens (Human), UniProt P29597) had Ki of 1 to 10 nM
